tested on: HepG2 cells; test: multiparametric cell-based HCA hepatotoxicity assay; design: species or system human; settings: HepG2, 24-hour incubation; read-out: IC50 of nuclear area (NA)
endpoint: pIC50
Remember, pIC50 is on a log scale: it is -log10 of the molar concentration.

Ask | I have this molecule here, N#CC(C#N)=NNc1ccc(OC(F)(F)F)cc1 [FCCP, P-fluoromethoxyphenylhydrazone] , and I need its recorded pIC50.
Reply | 6.19

====

system: HepG2 cells; assay: multiparametric cell-based HCA hepatotoxicity assay; design: species or system human; settings: Homo sapiens, HepG2, 24 h, HepG2, 24-hour incubation; read-out: IC50 of mitochondrial mass (MS)
endpoint: IC50 (mM)
Field: numeric (mM). Do not append units.

Ask | Please report the recorded IC50 for `CC(=O)Nc1ccc(O)cc1` .
Reply | 9.78
